- Test system: Hexose transporter 1 (Plasmodium falciparum)
- Assay summary: ST_JUDE_LEISH: Cytotoxicity at 2uM final concentration against transgenic Leishmania Mexicana promastigotes LmPfHT that are glucose transport deficient and complemented with the Plasmodium falciparum hexose transporter. Activity is measured by DNA content using SYBR green in vitro
- Type: functional
Decision: inhibition compared against 9%; not below it gives MET, below it gives NOT MET.

Take a look at these entries with their results.
- Molecule: "O=C(NC1CCC(N2CCC(O)(c3ccc(F)cc3)CC2)CC1)c1cc2ccccc2[nH]1 (stereo unspecified)"
  Test system: "Hexose transporter 1 (Plasmodium falciparum)"
  Assigned class: "NOT MET"
- Molecule: "O=c1cc(NCCCNCc2scc(I)c2I)[nH]c2ccccc12"
  Test system: "Hexose transporter 1 (Plasmodium falciparum)"
  Assigned class: "NOT MET"
- Molecule: "C/C=C/C=C/C1=NCCc2cc(OCCC)ccc21"
  Test system: "Hexose transporter 1 (Plasmodium falciparum)"
  Assigned class: "MET"

[Q] Determine whether this molecule has inhibition no lower than 9%: O=C(Nc1cccc(-c2cccc(-c3nc4cc(C(F)(F)F)ccc4[nH]3)c2)c1)c1ccoc1
[A] MET

[Q] Determine whether this molecule has inhibition no lower than 9%: CC1CN(CC(O)Cn2c3ccc(Br)cc3c3cc(Br)ccc32)CC(C)O1 (stereo unspecified)
[A] NOT MET
